assay: protein stability index of a GFP-peptide fusion (yeast GPS) (PSI 1-4); higher = more stable; sorted into four equal gates, so the index is relative within each strain; settings: doa10∆
Overview of reported protein stability index across a group of sequences:
Respond using a number only.

Known protein stability index results, listed for orientation:
                     primarysequence  measurednumber
0           VWAPTQKCFKLTHRLGG [POP1]             2.2
1  TGATSLFGSSNNNNNNN [YGL172W/NUP49]            2.39

Ask: State the recorded protein stability index for this entry: NVEMEEDVLVNQILMSV [RPL1A]
Result: 2.83

Ask: State the recorded protein stability index for this entry: NANTGFSFGGTQTGQNT [YGL172W/NUP49]
Result: 3.42

Ask: State the recorded protein stability index for this entry: TRIQYVDFACCTNLTNR [GRR1]
Result: 2.82

Ask: State the recorded protein stability index for this entry: RLTRLWIKNEQERQRQI [PRP8]
Result: 2.42

Ask: State the recorded protein stability index for this entry: TGPFKVNGVPLRRVNAR [RPL6B]
Result: 2.26

Ask: State the recorded protein stability index for this entry: YQMHIKTSKDIAVLRSK [FAS1]
Result: 2.25

Ask: State the recorded protein stability index for this entry: KNYDATDKPFSSTQDVI [CSI1]
Result: 2.37

Ask: State the recorded protein stability index for this entry: STLSNWSSEFAKWAPTL [SNF2]
Result: 2.9

Ask: State the recorded protein stability index for this entry: VYESEMEQCKQRYQDLS [YIL149C/MLP2]
Result: 3.27

Ask: State the recorded protein stability index for this entry: DFHFSTDRITRLFIKPG [BRN1]
Result: 2.33

The values you see were collected from the supplement of paper PMC9732359.
